All values here come from ChEMBL document CHEMBL3860050.

- Tested system: ATP-dependent translocase ABCB1 (Homo sapiens, UniProt P08183)
- Sequence (P08183 whole entry): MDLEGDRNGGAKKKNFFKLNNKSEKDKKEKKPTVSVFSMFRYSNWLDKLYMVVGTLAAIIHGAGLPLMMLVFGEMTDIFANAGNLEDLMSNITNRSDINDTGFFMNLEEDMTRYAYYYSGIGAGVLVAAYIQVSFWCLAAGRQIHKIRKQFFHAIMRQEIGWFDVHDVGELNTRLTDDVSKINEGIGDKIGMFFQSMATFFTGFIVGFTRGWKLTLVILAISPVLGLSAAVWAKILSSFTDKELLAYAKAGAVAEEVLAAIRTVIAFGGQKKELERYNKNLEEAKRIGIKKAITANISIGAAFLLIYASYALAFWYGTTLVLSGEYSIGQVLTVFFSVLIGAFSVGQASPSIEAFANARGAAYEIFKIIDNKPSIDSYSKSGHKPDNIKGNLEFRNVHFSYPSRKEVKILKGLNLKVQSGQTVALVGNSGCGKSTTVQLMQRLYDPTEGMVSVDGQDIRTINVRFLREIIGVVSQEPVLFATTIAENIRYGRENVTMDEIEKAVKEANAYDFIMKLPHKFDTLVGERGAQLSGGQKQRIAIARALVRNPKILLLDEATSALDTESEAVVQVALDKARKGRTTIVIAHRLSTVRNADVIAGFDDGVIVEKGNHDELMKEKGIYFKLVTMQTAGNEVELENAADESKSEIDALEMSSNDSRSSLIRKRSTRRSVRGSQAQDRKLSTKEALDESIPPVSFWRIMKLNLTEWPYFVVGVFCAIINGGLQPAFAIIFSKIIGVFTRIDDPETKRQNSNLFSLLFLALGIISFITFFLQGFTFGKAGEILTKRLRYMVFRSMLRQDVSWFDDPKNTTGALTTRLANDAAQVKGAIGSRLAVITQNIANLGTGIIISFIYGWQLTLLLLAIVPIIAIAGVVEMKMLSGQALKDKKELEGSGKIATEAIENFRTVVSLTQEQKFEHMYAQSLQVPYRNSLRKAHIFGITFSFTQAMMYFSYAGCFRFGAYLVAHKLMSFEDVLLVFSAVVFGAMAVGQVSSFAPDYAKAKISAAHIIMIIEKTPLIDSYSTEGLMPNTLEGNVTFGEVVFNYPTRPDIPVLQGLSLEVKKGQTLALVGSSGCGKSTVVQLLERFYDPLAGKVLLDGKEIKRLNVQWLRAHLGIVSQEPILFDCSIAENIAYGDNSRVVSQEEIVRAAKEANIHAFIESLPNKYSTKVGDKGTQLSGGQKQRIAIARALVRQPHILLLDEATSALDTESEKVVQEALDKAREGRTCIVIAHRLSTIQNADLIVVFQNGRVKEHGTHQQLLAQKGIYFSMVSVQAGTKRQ
- Experiment description: Inhibition of MDR1-mediated efflux-pump activity in mouse L5178Y cells expressing human MDR1 assessed as fluorescence activity ratio at 20 uM preincubated for 10 mins followed by rhodamine-123 addition measured after 20 mins by flow cytometry
- Format: cell-based
API: label(entry) gives class 1 if the entry's Ratio is strictly smaller than 2; on equality or larger values it gives class 0.

CC(C)=C[C@H](O)C[C@@H](C)[C@H]1CC[C@@]2(C)[C@@H]3C(O[C@H]4O[C@@H](CO)[C@H](O)[C@@H](O)[C@@H]4O)C=C4[C@@H](CC[C@H](O)C4(C)C)[C@]3(C)CC[C@]12C (some centres undefined)	class 0
CC(C)=C[C@H](O)C[C@@H](C)[C@H]1CC[C@@]2(C)[C@@H]3C(=O)C=C4[C@@H](CC[C@H](O)C4(C)C)[C@]3(C)CC[C@]12C	class 0
CO[C@H]1C=C2[C@@H](CC[C@H](OC(=O)c3ccccc3)C2(C)C)[C@]2(C)CC[C@]3(C)[C@@H]([C@H](C)C[C@H](C=C(C)C)OC(=O)c4ccccc4)CC[C@@]3(C)[C@H]12 [KARAVOATE H]	class 1
CC(=O)C[C@@H](C)[C@H]1CC[C@@]2(C)[C@@H]3C(=O)C=C4[C@@H](CC[C@H](O)[C@]4(C)CO)[C@]3(C)CC[C@]12C	class 1
CC(C)=C[C@H](O)C[C@@H](C)[C@H]1CC[C@@]2(C)[C@@H]3C=C[C@@]45OC[C@]3(CC[C@]12C)[C@@H]4CC[C@H](O)C5(C)C	class 0

QUERY: Please let me know if COc1ccc(C(=O)O[C@@H](C=C(C)C)C[C@@H](C)[C@H]2CC[C@@]3(C)[C@@H]4[C@@H](OC)C=C5[C@@H](CC[C@H](O)C5(C)C)[C@]4(C)CC[C@]23C)cc1 [KARAVOATE M] shows Ratio below 2.
RESULT: class 1

QUERY: Please state whether Ratio is below 2 for CC(C)=C[C@@H](C[C@@H](C)[C@H]1CC[C@@]2(C)[C@@H]3[C@@H](OC(=O)c4ccccc4)C=C4[C@@H](CC[C@H](OC(=O)c5ccccc5)C4(C)C)[C@]3(C)CC[C@]12C)OC(=O)c1ccccc1
RESULT: class 1

QUERY: Quick check: does CO[C@H]1C=C2[C@@H](CC[C@H](O)C2(C)C)[C@]2(C)CC[C@]3(C)[C@@H]([C@H](C)C[C@H](C=C(C)C)OC(=O)c4ccc([N+](=O)[O-])cc4)CC[C@@]3(C)[C@H]12 [KARAVOATE I] have Ratio under 2?
RESULT: class 0

QUERY: Please determine if CO[C@H]1C=C2[C@@H](CC[C@H](O)C2(C)C)[C@]2(C)C[C@@H](O)[C@]3(C)[C@@H]([C@H](C)C/C=C/C(C)(C)O)CC[C@@]3(C)[C@H]12 is below 2 in terms of Ratio.
RESULT: class 0

---

- Tested system: ATP-dependent translocase ABCB1 (Homo sapiens)
- Experiment description: Inhibition of MDR1-mediated efflux-pump activity in mouse L5178Y cells expressing human MDR1 assessed as mean fluorescence intensity at 2 uM preincubated for 10 mins followed by rhodamine-123 addition measured after 20 mins by flow cytometry (reference value: 7.1 to 18.6)
- Assay type: cell-based
Endpoint name: Flu intensity
The answer should be a number; do not append a unit.

CC(C)=C[C@H](O)C[C@@H](C)[C@H]1CC[C@@]2(C)[C@@H]3C(O[C@H]4O[C@@H](CO)[C@H](O)[C@@H](O)[C@@H]4O)C=C4[C@@H](CC[C@H](O)C4(C)C)[C@]3(C)CC[C@]12C (some centres not stated)	10.7

Okay, now this compound:
QUERY: // lookup Flu intensity for CO[C@H]1C=C2[C@@H](CC[C@H](O)C2(C)C)[C@]2(C)CC[C@]3(C)[C@@H]([C@H](C)C[C@H](C=C(C)C)OC(=O)c4ccc(Cl)cc4)CC[C@@]3(C)[C@H]12 [KARAVOATE K]
RESULT: 10.7
